Data origin, for the record: paper PMC8869731

# ∆S per record follows
- tested_on: KasH (Streptomyces kasugaensis, UniProt A0A0K1H2T0)
- Sequence (A0A0K1H2T0 entry or part of it): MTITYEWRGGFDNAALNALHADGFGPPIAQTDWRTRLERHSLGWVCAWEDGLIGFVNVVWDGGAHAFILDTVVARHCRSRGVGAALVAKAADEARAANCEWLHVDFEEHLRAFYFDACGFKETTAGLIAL
- protocol_notes: ITC of KasH versus ligands;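 further: isothermal titration calorimetry at 25 °C, 0.1 mM KasH in the cell titrated with 1 mM ligand over 18 injections, data fit with a one-site binding model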
- assay_conditions: ITC; KasH

{"chemical_structure": "CC(=O)SCCNC(=O)CCNC(=O)[C@H](O)C(C)(C)COP(=O)(O)OP(=O)(O)OC[C@H]1O[C@@H](n2cnc3c(N)ncnc32)[C@H](O)[C@@H]1OP(=O)(O)O", "tested_on": "KasH (Streptomyces kasugaensis, UniProt A0A0K1H2T0)", "unit_annotation": "cal mol-1 K-1", "∆S": -30.02}
{"chemical_structure": "CC(C)CC(=O)SCCNC(=O)CCNC(=O)[C@H](O)C(C)(C)COP(=O)(O)OP(=O)(O)OC[C@H]1O[C@@H](n2cnc3c(N)ncnc32)[C@H](O)[C@@H]1OP(=O)(O)O", "tested_on": "KasH (Streptomyces kasugaensis, UniProt A0A0K1H2T0)", "unit_annotation": "cal mol-1 K-1", "∆S": 6.48}
{"chemical_structure": "CCC(=O)SCCNC(=O)CCNC(=O)[C@H](O)C(C)(C)COP(=O)(O)OP(=O)(O)OC[C@H]1O[C@@H](n2cnc3c(N)ncnc32)[C@H](O)[C@@H]1OP(=O)(O)O", "tested_on": "KasH (Streptomyces kasugaensis, UniProt A0A0K1H2T0)", "unit_annotation": "cal mol-1 K-1", "∆S": -4.26}
{"chemical_structure": "CC(=O)CC(=O)SCCNC(=O)CCNC(=O)[C@H](O)C(C)(C)COP(=O)(O)OP(=O)(O)OC[C@H]1O[C@@H](n2cnc3c(N)ncnc32)[C@H](O)[C@@H]1OP(=O)(O)O", "tested_on": "KasH (Streptomyces kasugaensis, UniProt A0A0K1H2T0)", "unit_annotation": "cal mol-1 K-1", "∆S": -2.28}
{"chemical_structure": "C[C@H]1O[C@H](O[C@H]2[C@H](O)[C@@H](O)[C@@H](O)[C@H](O)[C@@H]2O)[C@@H](N)C[C@@H]1NC(=N)C(=O)O", "tested_on": "KasH (Streptomyces kasugaensis, UniProt A0A0K1H2T0)", "unit_annotation": "cal mol-1 K-1", "∆S": 11.7}
{"chemical_structure": "CC(C)(COP(=O)(O)OP(=O)(O)OC[C@H]1O[C@@H](n2cnc3c(N)ncnc32)[C@H](O)[C@@H]1OP(=O)(O)O)[C@@H](O)C(=O)NCCC(=O)NCCS", "tested_on": "KasH (Streptomyces kasugaensis, UniProt A0A0K1H2T0)", "unit_annotation": "cal mol-1 K-1", "∆S": -6.28}
